# compound, melting point
measured = [
    ("N#CC(C(=O)Nc1ccccc1)C(=O)c1nn(-c2ccccc2)c2c1CSc1ccc(N=CN3CCOCC3)cc1-2 (stereo not drawn)", "205 to 210 °C"),
    ("CC(C)(C)c1nc(C(=O)c2nccs2)nc(C(C)(C)C)c1O", "181 to 184 °C"),
    ("CC(=O)Cc1nc2ccccc2s1", "118 to 119 °C"),
    ("COCCc1sc2ncnc(N)c2c1-c1ccc(NC(=O)Nc2ccccc2C)cc1", "217 to 219 °C"),
    ("CCOC(=O)c1c(-c2ccccc2C)c2cc(C)c(Cl)cc2[nH]c1=O", "290 to 291 °C"),
    ("COC(=O)c1ncoc1-c1cccs1", "64 to 66 °C"),
    ("CS(=O)(=O)c1ccc(Cl)c(C(=O)Nc2ccc(-n3nc(C4CC4)cc3C3CC3)cc2)c1", "60 to 65 °C"),
    ("CCCn1c(=O)c2[nH]c(C3CCCC3)nc2n(CCc2ccc(NC(C)=O)cc2)c1=O", "> 270 °C"),
    ("O=C(Cc1ccc2c(c1)OCO2)Nc1cc(C2CC2)n[nH]1", "174 to 176 °C"),
    ("Cc1c(N(C)C)cc(C(=O)CS(C)(=O)=O)cc1N(C)C", "161 to 163 °C"),
    ("COC(=O)C(C)Oc1ccc(NC(=O)COCc2ccccc2)cc1 (stereo not drawn)", "67 to 70 °C"),
    ("CCOC(=O)c1ccc2c(c1)c(-c1ccccc1)nn2CCC#N", "99 to 102 °C"),
    ("Cc1onc(-c2ccccc2)c1-c1[nH]c2ccccc2c1CCN(C)C", "142 to 144 °C"),
]

---

// reported melting point for each item listed

# compound, melting point
rows = [
    ("O=C(NNC(=O)c1ccccc1Cl)c1ccccc1Cl", "217 to 219 °C"),
    ("COc1ccc(C(O)CN2CCN(c3cccccc3=O)CC2)cc1OC (stereo not given)", "122 to 124 °C"),
    ("COc1ccc(Nc2nc(-c3cc(-c4ccccc4)no3)cs2)nc1", "203 to 205 °C"),
    ("CCCOc1ccccc1-c1nc2nc(NCCN(C)C)ncc2c(=O)[nH]1", "181 to 182 °C"),
    ("CCc1cccc(CC)c1NC(=O)C1c2ccccc2COc2ccc(C)cc21 (stereo not given)", "202 to 203 °C"),
    ("CN(C)c1ccc(NC(=O)N(Cc2ccccc2)C[C@H]2CCC[C@H](CN(Cc3ccccc3)C(=O)Nc3ccc(N(C)C)cc3)C2)cc1 (relative stereo)", "129 to 133 °C"),
    ("CNC1=NN(C(=O)C(C)(C)C)C(C)(C)S1", "162 to 164 °C"),
    ("CCN1c2cscc2CN(C)c2ccccc21", "135 to 137 °C"),
    ("CC(O)c1cc2c(s1)C(=O)c1ccsc1C2=O (stereo not given)", "166 to 168 °C"),
    ("Cc1ccc(Oc2ccc(-c3ccn(CC4CC4)c(=O)c3Cl)cc2F)c(C)n1", "143 °C"),
    ("CCCOc1ccc(-n2c(C(F)(F)F)nn(C)c2=S)cc1", "68 to 70 °C"),
    ("COC(=O)c1ccc(OCCNC(=O)C2Cc3ccccc3N2S(=O)(=O)c2ccc(-c3cccc(C(F)(F)F)c3)cc2)cc1Cl (stereo not given)", "63 to 67 °C"),
    ("COc1cccc(Cl)c1CBr", "44 to 47 °C"),
    ("CCCCc1nc2cccc(C(=O)OC)c2n1Cc1ccc(-c2ncncc2C#N)cc1", "131 to 133 °C"),
    ("O=[N+]([O-])N=C1NCCCN1CC1CCOC1 (stereo not given)", "87.5 to 90.8 °C"),
]

---

// reported melting point for each item listed

# compound, melting point
data = [
    ("c1cncc(C2CCc3ccccc3O2)c1 (configuration not stated)", "59 to 60 °C"),
    ("O=C(O)C1Oc2ccc3ccccc3c2C=C1C(F)(F)F (configuration not stated)", "245 to 250 °C"),
    ("OCCCc1ccc(-c2ccc(CCCO)c(C(F)(F)F)c2)cc1C(F)(F)F", "87.5 to 90 °C"),
    ("CC(C)(C)OC(=O)NCCCn1c2c(c3ccc(NC(=O)CC(=O)O)cc3c1=O)C(=O)c1ccccc1-2", "211 to 212 °C"),
    ("CC(Br)c1ccc2c(-c3ccccc3)onc2c1 (configuration not stated)", "99 to 102 °C"),
    ("CN(O)C(=O)N1CCC(C(c2ccccc2)c2ccccc2)CC1", "143 to 144 °C"),
    ("Oc1ccc(-c2ccc(CCC(O)CCc3cccnc3)cc2)cc1 (configuration not stated)", "140 to 143 °C"),
]

---

// reported melting point for each item listed
test-readout: melting point

# molecule, test-readout, result
data = [
    ("COc1cc(OC)c2c(=O)[nH]c(-c3cc(C)c(CCCN4CCCC4)c(C)c3)nc2c1", "melting point", "194 to 196 °C"),
    ("Cn1ncc2c(c1=O)SCCNC2C(=O)c1ccccc1 (stereo not drawn)", "melting point", "210 °C"),
    ("O=C1CCC(N2Cc3c(OCc4ccc(Cn5ccnc5)cc4)cccc3C2=O)C(=O)N1 (stereo not drawn)", "melting point", "248 to 250 °C"),
]

---

// reported melting point for each item listed

# molecule, melting point
records = [
    ("Cc1c(F)c([N+](=O)[O-])cc2c(=O)c(C(=O)O)cn(-c3cc(N)c(F)cc3F)c12", "250 to 252 °C"),
    ("COc1ccc(-c2ccncc2)cc1-c1cccc(Oc2ccccc2)c1", "184 to 204 °C"),
    ("CCCCNC(=O)NS(=O)(=O)c1ccccc1-c1ccno1", "110 to 113 °C"),
    ("O=C(O)CCOc1ccc(CCNC(=O)C2Cc3ccccc3N2S(=O)(=O)c2ccc(-c3cccc(C(F)(F)F)c3)cc2)cc1 (stereo not drawn)", "70 °C"),
    ("COC(=O)c1cc(N(C)C)c(N(C)C)c(N(C)C)c1", "61 to 63 °C"),
    ("CN1CCN(C2=C3CN(C)CC34CC(=CC#N)C=CC4=NC=C2)CC1 (stereo not drawn)", "178 to 180 °C"),
    ("Cc1cccc(-c2nc(N)sc2-c2ccnc(-c3ccc(CN4CCOCC4)cc3)c2)n1", "190 to 192 °C"),
    ("CCCCc1noc(-c2ccc(C(=O)NCCC(C)(C)C)cc2)n1", "95 to 97 °C"),
]

---

test-readout: melting point

# compound, result
measured = [
    ("COCCNC(=O)c1cccc(-c2cccc3cc(Cc4cccc(N(C)C)c4)sc23)c1", "92 to 93 °C"),
    ("COc1ccc(-n2nc(C)c(CC(=O)O)c2C)cc1", "154 to 155 °C"),
    ("CCOC(=O)CN(C)S(=O)(=O)c1c(C(=O)OC)sc2cc(C)ccc12", "86 to 87 °C"),
    ("COc1ccc(-c2c(NC(C)(C)Cc3ccccc3)c(=O)c2=O)cc1", "150 to 151 °C"),
    ("CCOC(=O)C1Cc2c([nH]c3ccccc23)CN1C(=S)SCc1ccc(Cl)cc1 (stereo not drawn)", "195 to 197 °C"),
    ("CCNCc1nc(-c2ncn3c2CN(C)C(=O)c2cc(F)ccc2-3)no1", "166 to 168 °C"),
    ("CCn1nnc(NC(=O)C2c3ccccc3COc3ccccc32)n1 (racemic)", "158 to 159 °C"),
    ("CCN1CC(=O)N(c2cc(Cl)ccc2C)C1=S", "152 to 154 °C"),
    ("C=CCOc1cccc2c1C(=O)OC2=O", "115 to 117 °C"),
    ("CC(C)CNc1cccnc1N1CCN(C(=O)c2ccc(C(=O)NC(C)C)cn2)CC1", "132 to 134 °C"),
    ("O=C(O)c1cccnc1N1CCN(CCOCCO)CC1", "172 to 174 °C"),
    ("Cc1c(Cl)cccc1N=c1scc(-c2ccc(Cl)c(S(=O)(=O)N(C)C)c2)n1C", "144 to 146 °C"),
    ("O=CC1=C(c2ccc(Cl)c(Cl)c2)C2CCC1CC2", "71 to 71.5 °C"),
]

---

# molecule, melting point
records = [
    ("CCN(c1nc(NCCO)nc(N(CC)C2CC(C)(C)NC(C)(C)C2)n1)C1CC(C)(C)NC(C)(C)C1", "184 to 185 °C"),
    ("COC(=O)c1ccccc1S(=O)COc1ccc(Cl)cc1Cl (configuration not stated)", "64 to 67 °C"),
    ("Cc1c(C2=CCC(Cc3ccccc3)(N(C)C)CC2)[nH]c2ccc(OC(F)(F)F)cc12 (configuration not stated)", "74 to 75 °C"),
    ("O=C1c2cccc(N(CCO)CCO)c2OC12CC2", "74 to 76 °C"),
    ("CCC1(Cl)Cc2cc(OCC(=O)O)c(Cl)c(Cl)c2C1=O (configuration not stated)", "185 to 187 °C"),
    ("N#Cc1nn(-c2c(Cl)cc(C(F)(F)F)cc2Cl)c(N)c1-c1ccccc1Cl", "192 to 193 °C"),
    ("CCOC(=O)C1=COc2cc(C(C)(C)C)c(O)cc2O1", "222 °C"),
    ("CC(C)(CO)Nc1nc(SCc2cccc(F)c2F)nc2nc(N)sc12", "231 to 234 °C"),
    ("N#CCOc1cc2ccccc2cc1I", "105 to 107 °C"),
    ("COc1ccc(-c2ccc(C#N)o2)cc1C(F)(F)F", "61 to 64 °C"),
    ("Cc1noc(C)c1Cn1cc(N2C(=O)CN(CCc3cccc(F)c3)C2=O)cn1", "110 to 111 °C"),
    ("NCCc1cccc(N2C(=O)N(c3ccc(C(F)(F)F)cc3Cl)Cc3cnc(Nc4ccccc4)nc32)c1", "102 °C"),
    ("CC=Cc1cc(C(=O)c2ccccc2F)c(Cl)c(Cl)c1O", "83 to 84 °C"),
    ("COC(=O)C1C=CCN2C(=O)C(C)(CCI)C(=O)N12 (configuration not stated)", "86 to 87 °C"),
    ("CCC1=C(c2ccccc2)C(c2ccccc2)=C(CC)C1=C(C#N)C#N", "154 to 156 °C"),
    ("COc1cccc(CC(O)C2CCNCC2)c1OC (configuration not stated)", "82 to 84 °C"),
    ("COC(=O)c1c(N)ncn1C1c2ccccc2CCC1(C)C (configuration not stated)", "193 to 195 °C"),
    ("CNCCOc1cccc2c1CC(=O)N2", "153 to 156 °C"),
    ("Cc1ccnc(C(=O)c2[nH]c3ccc(Cl)cc3c2CC(=O)N2CCC(N)C2)c1 (configuration not stated)", "179 °C"),
    ("CCOC(=O)CNC(=O)[C@@H]1CS[C@H](c2ccccc2O)N1C(=O)CCSC(C)=O", "130 to 131 °C"),
    ("O=C(NC1(Cc2ccccc2)C=CCC1)C(Cl)(Cl)Cl (configuration not stated)", "127 to 128 °C"),
    ("Cc1nn2c(-c3ccc(Cl)cc3Cl)cccc2c1[N+](=O)[O-]", "146 to 150 °C"),
    ("CCOC(=O)CC(=O)COCC1=C(C(=O)OCC)C(c2ccccc2Cl)C(C(=O)OC)=C(C)N1 (configuration not stated)", "88 to 89 °C"),
    ("O=c1[nH]c2ncc(-c3ccc(O)cc3)nc2n1C1CCOCC1", "382 to 383 °C"),
    ("CCOC(=O)c1ccc(OCCCCCCCCCCC2c3c(c4ccccc4c4ccccc34)-c3c2c2ccccc2c2ccccc32)cc1", "122 to 124 °C"),
    ("Cc1ccc(C(=O)Nc2ccc(-n3nc(C(F)(F)F)cc3C(F)(F)F)cc2)cc1", "225 to 226 °C"),
    ("CCOC(=O)c1cn(-c2cc(NC(=O)OC(C)(C)C)c(F)cc2F)c2c(C)c(F)c(F)c([N+](=O)[O-])c2c1=O", "188 to 189 °C"),
    ("CCCN(c1ccc(C(F)(F)F)cc1)c1nc(=O)c2cccnc2s1", "216 to 217 °C"),
    ("CCCCOc1ncc(C(C)=O)cc1-c1nc2c(CC)n(C3CCN(C(=O)OC(C)(C)C)CC3)nc2c(=O)[nH]1", "194 to 195 °C"),
    ("CCCn1nc(CC)c(C(=O)OC)c1Cc1ccc(-c2ccccc2S(N)(=O)=O)cc1", "144 °C"),
    ("Cc1c(C=O)cccc1C(=O)c1ccc(Cl)cc1", "68 °C"),
    ("COCOc1c(C)cc(-c2ccc(C(=O)O)cc2)cc1C", "153 to 154 °C"),
]
